B1: library; numbered along this chain (parent)
chain: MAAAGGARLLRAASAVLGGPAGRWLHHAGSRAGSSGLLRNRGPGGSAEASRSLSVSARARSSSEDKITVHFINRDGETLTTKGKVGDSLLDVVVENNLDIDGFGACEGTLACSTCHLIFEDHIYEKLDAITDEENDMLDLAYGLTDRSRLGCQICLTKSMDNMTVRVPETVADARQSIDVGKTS

Variants of: B1
Experiment: scaled log2 fold change in cell abundance, elesclomol vs control (0 = silent mean, 1 = nonsense mean) (scaled log2 ratio); higher = higher viability under elesclomol (loss of FDX1 cuproptosis function);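 further: variant abundance is its share of total variant reads in each endpoint sample, from next-generation sequencing of the integrated ORF PCR-amplified out of genomic DNA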
Settings: with ABC1 FDX1 KO; elesclomol 5 nM; glucose 10 mM; 14 days
Documented scaled log2 fold change across a set of variants
attribute-measured: scaled log2 fold change

In [3]: df
Out[3]:
    variant_key       attribute_measured  obs_value
 0        L117R  scaled log2 fold change       1.14
 1        E133N  scaled log2 fold change     -0.113
 2         F71Q  scaled log2 fold change        1.3
 3        D161P  scaled log2 fold change      0.586
 4         V55P  scaled log2 fold change     -0.481
 5        L144M  scaled log2 fold change      0.249
 6         V69S  scaled log2 fold change      0.684
 7         N97H  scaled log2 fold change     -0.355
 8         R31F  scaled log2 fold change     -0.116
 9        G181A  scaled log2 fold change     -0.623
10         H27P  scaled log2 fold change     -0.143
11        T183A  scaled log2 fold change      -0.44
12        A111T  scaled log2 fold change      0.105
13         W24Q  scaled log2 fold change     -0.175
14        L156P  scaled log2 fold change      0.268
15         A59R  scaled log2 fold change     -0.761
16         K84I  scaled log2 fold change      0.197
17         G29E  scaled log2 fold change      0.324
18        A105D  scaled log2 fold change     0.0439
19        M163K  scaled log2 fold change      0.823
20        A141H  scaled log2 fold change      0.134
21         T80F  scaled log2 fold change      0.473
